Tested on: DU145 cells
test-details: MTT antiproliferative assay, DU145
Format: cell-based
test-settings: Homo sapiens, DU-145
parameter-measured: pIC50
The read-out pIC50 is expressed as -log10 of concentration in moles per litre.

# input Need pIC50, item N#Cc1c(-c2cnc(N)cc2C(F)(F)F)nc(N2CCOCC2)nc1N1CCOCC1 [Compound 17m]
# output 4.91

# input Need pIC50, item N#Cc1c(-c2cccc(O)c2)nc(N2CCOCC2)nc1N1CCOCC1 [Compound 17e]
# output 5.82

# input Need pIC50, item CNc1ncc(-c2nc(N3CCOCC3)nc(N3CCOCC3)c2C#N)cn1 [Compound 17o]
# output 5.30

# input Need pIC50, item N#Cc1c(-c2cnc(N)nc2C(F)(F)F)nc(N2CCOCC2)nc1N1CCOCC1 [Compound 17p]
# output 5.06

# input Need pIC50, item Nc1cc(C(F)(F)F)c(-c2cc(N3CCOCC3)nc(N3CCOCC3)n2)cn1 [BKM-120, Buparlisib, reference compound]
# output 5.65
